Recorded values, source patent US20210308173A1.

- Assay Name: Solubility testing in buffer containing media
- Type: physicochemical
- Assay Setup: buffered aqueous cyclodextrin solution, pH 7.5, aqueous with cosolvent or surfactant or cyclodextrin, 40% HP-β-cyclodextrin, pH 7.5 phosphate buffer; read-out: highest solubility value
Reported Metric: solubility (µg/mL)
Answers are plain numbers, in µg/mL.

// solubility lookup, molecule = COc1ccc(-c2cc(=S)ss2)cc1 , result: 723

* * *

- Assay Name: Cyclodextrin-AOL solubility diagrams
- Assay type: physicochemical
- Assay Setup: aqueous SBE-β-CD solution, 20 °C, aqueous with cosolvent or surfactant or cyclodextrin, thermodynamic from solid, SBE-β-CD 5% (w/w), 20° C.; read-out: AOL solubility
- From the text: A cyclodextrin-AOL solubility diagram would reveal the profile of the solubility curve of the AOL depending on the concentration of the cyclodextrin. The principle of this method is to add an excess of AOL to cyclodextrin solutions of increasing concentration, then to measure the amount of solubilized AOL. […] The solubility of AOL in each test solution was quantified by HPLC as detailed in Example 2.
Reported Metric: solubility at 4 h (µg/mL)
Answers are plain numbers, in µg/mL.

// solubility at 4 h lookup, compound = COc1ccc(-c2cc(=S)ss2)cc1 , result: 59.7
